# assayed system: FAP (Homo sapiens)
# Construct: Target cells: WI-38 cells (typically 1000-20,000 cells per well); endogenous in cells; host or cells: WI-38 cells
# Sequence (Q12884 1-760): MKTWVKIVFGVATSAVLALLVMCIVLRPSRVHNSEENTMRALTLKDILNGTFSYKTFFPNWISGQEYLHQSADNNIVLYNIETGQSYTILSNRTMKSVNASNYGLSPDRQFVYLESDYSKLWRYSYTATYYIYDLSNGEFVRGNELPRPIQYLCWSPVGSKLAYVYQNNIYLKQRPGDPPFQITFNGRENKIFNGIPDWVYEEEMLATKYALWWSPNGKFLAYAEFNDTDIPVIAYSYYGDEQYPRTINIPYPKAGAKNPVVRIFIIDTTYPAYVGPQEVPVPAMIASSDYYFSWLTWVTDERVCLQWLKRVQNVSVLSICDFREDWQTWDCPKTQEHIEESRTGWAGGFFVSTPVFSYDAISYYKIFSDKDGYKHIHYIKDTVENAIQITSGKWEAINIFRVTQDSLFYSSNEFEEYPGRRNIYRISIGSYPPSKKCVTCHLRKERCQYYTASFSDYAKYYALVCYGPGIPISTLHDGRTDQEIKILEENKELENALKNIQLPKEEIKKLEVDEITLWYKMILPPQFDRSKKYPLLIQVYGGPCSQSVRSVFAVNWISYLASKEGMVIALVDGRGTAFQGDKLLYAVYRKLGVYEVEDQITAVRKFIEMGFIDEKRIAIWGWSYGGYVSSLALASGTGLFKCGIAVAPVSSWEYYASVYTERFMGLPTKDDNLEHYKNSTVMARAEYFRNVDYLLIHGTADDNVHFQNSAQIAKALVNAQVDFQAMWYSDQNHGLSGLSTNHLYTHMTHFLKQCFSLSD
# protocol: Antibody dependent cellular cytotoxicity (ADCC) reporter assay
# Assay type: cell-based
# experimental conditions: WI-38 target cells; Jurkat FcγRIIIa NFAT-luciferase reporter cells; with anti-cotinine antibody (SEQ ID NO: 11/12); 12-18 hours; average if more than one run; read-out: ADCC Reporter Assay pEC50 (converted)
# Protocol: […] Luminescence signal was measured on a microplate reader capable of measuring luminescence and signal:background was calculated by dividing the signal of a test well by the signal obtained when no compound of formula (I) was included in the assay. […]
observable: EC50 (nM)
Field: numeric (nM). Do not append units.

Use the examples below as a reference point.
-- ask What does the record list as EC50 for CN(CCNC(=O)CCOCCOCCOCCOCCOCCOCCOCCOCCOCCOCCOCCOCCOCCOCCOCCOCCOCCOCCOCCOCCNC(=O)[C@H]1CC(=O)N(C)[C@@H]1c1cccnc1)c1ccc2nccc(C(=O)NCC(=O)N3CC(F)(F)C[C@H]3C#N)c2c1 ?
-- reply 12.6

-- ask Now the same for CN1C(=O)C[C@H](C(=O)NCCOCCOCCOCCOCCOCCOCCOCCOCCOCCOCCOCCOCCOCCOCCOCCOCCOCCOCCOCCOCCOCCOCCOCCNC(=O)COc2ccc3c(C(=O)NCC(=O)N4CC(F)(F)C[C@H]4C#N)ccnc3c2)[C@H]1c1cccnc1
-- reply 1

Here's the next entry for you.
-- ask Please report the recorded EC50 for CN1C(=O)C[C@H](C(=O)NCCOCCOCCOCCOCCOCCOCCOCCOCCOCCOCCOCCOCCOCCOCCOCCNC(=O)COc2ccc3nccc(C(=O)NCC(=O)N4CCC[C@@H]4C#N)c3c2)[C@H]1c1cccnc1 .
-- reply 3.98
